These measurements were taken from PubChem BioAssay AID1159580.

- assayExplanation: chemical genetic growth profiling, strain panel (AID 1159580);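 also: tested at 20 µM; growth read once vehicle control cultures reached saturation at 30 °C; 1 = growth at the plate median or of vehicle wells; lower values mean less growth of the strain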
- experimentalConditions: S. cerevisiae deletion strains, growth OD, locus YBR021W, strain FUR4
The whole screen tested about 5,500 compounds, of which about 2,000 (36%) were called active. Inconclusive results (about 18%) are left out. Rule as the data show it: active = normalized growth mostly below about 0.91 (no sharp cut-off); inconclusive = no clear call, values can overlap the other calls; inactive = mostly above about 0.92. Some of the results follow.
Please answer using one outcome listed in class 1 (active), class 0 (inactive)

q: Could you kindly confirm the outcome this assay logged for CC(C)=CCCC(C)C1CC[C@@]2(C)C3=C(CC[C@]12C)C1(C)CC[C@H](O)C(C)(C)C1CC3 (stereo not given in full) ?
a: class 0

q: Assay result, entry `CCOC(=O)NNc1nncc2ccccc12` — outcome?
a: class 0

---

- assayExplanation: chemical genetic growth profiling, strain panel (AID 1159580);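 also: tested at 20 µM; growth read once vehicle control cultures reached saturation at 30 °C; 1 = growth at the plate median or of vehicle wells; lower values mean less growth of the strain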
- experimentalConditions: S. cerevisiae deletion strains, growth OD, locus YNL233W, strain BNI4, active compounds read low
In all, about 5,500 compounds went through this assay and about 2,000 (36%) were called active. Another 18% or so got no clear call; they are omitted. Some of the results follow.
readoutType: normalized growth

q: I would be grateful if you could share the reported normalized growth for `CCCSc1ccc2nc(NC(=O)OC)[nH]c2c1` .
a: 0.965 (inactive)

q: Quick one: normalized growth of CC(C)(C)NCC(O)c1ccc(O)c(CO)c1 (stereo not drawn) ?
a: 0.99 (inactive)

q: Can you look up the measured normalized growth of CC(=O)O[C@H]1CC[C@@]2(C)C(=CC(=O)C3C4CCC(C(C)CCCC(C)C)[C@@]4(C)CCC32)C1 (stereo partly drawn) for me?
a: 1.01 (inactive)

---

- assayExplanation: chemical genetic growth profiling, strain panel (AID 1159580);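 also: tested at 20 µM; growth read once vehicle control cultures reached saturation at 30 °C; 1 = growth at the plate median or of vehicle wells; lower values mean less growth of the strain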
- experimentalConditions: S. cerevisiae deletion strains, growth OD, locus YMR001C, strain CDC5, active compounds read low
Out of some 5,500 compounds screened, about 2,000 (36%) were called active. Another 18% or so got no clear call; they are omitted. This is one part of the list.
readoutType: normalized growth

Some entries whose results are on file:
- compound: "O=S(=O)(Nc1ccccc1Oc1ccccc1)c1ccc(-c2ccno2)s1"
  value: "0.968 (inactive)"
- compound: "Cc1onc(-c2c(F)cccc2Cl)c1/C(N)=N\\OC(=O)c1ccc(C(C)(C)C)cc1"
  value: "0.987 (inactive)"
- compound: "O=C(CSC1=NNC(c2ccccn2)S1)Nc1ccccc1 (stereo unspecified)"
  value: "1 (inactive)"
- compound: "Cc1onc(-c2c(Cl)cccc2Cl)c1C(=O)O/N=C(/N)Cc1ccc(C(C)(C)C)cc1"
  value: "0.989 (inactive)"
- compound: "CSc1n[nH]c(-c2cc(C(C)(C)C)oc2C)c1C#N"
  value: "0.945 (inactive)"

q: Name the recorded normalized growth for `O=C(NOC(=O)c1ccccc1)c1ccccc1` .
a: 0.0891 (active)

q: Fill blank: measured normalized growth of the compound `CC(=O)c1ccc(Cl)c(N=Cc2cc(Cl)cc(Cl)c2O)c1` is ____.
a: 0.936 (inactive)

q: Look at this compound and give its reported normalized growth. `CCOC(=O)/C(C#N)=C(\Nc1ccc(C(=O)OCC)cc1)SC`
a: 0.981 (inactive)

q: Recorded normalized growth for `CC(=O)c1ccc(Cl)c(N=Cc2cc(Br)cc(Br)c2O)c1` , please?
a: 0.0969 (active)

q: Please give the measured normalized growth for this compound: `O=S(=O)(Oc1ccc(-c2csnn2)cc1)c1ccccc1Cl`
a: 0.968 (inactive)

q: Entry `N#CSCC(=O)c1ccccc1` : reported normalized growth = ?
a: 0.0981 (active)

q: Which normalized growth value is on record for `Clc1ccc(CN2CCN(c3cccc4[nH]ccc34)CC2)cc1Cl` ?
a: 0.993 (inactive)

q: Requested field: normalized growth. Item: `CC(C)(C)c1cc(C(=O)NNc2cccc(Cl)c2)n(Cc2ccccc2)n1`
a: 0.975 (inactive)

q: What normalized growth value was documented for this compound, `OC(COc1ccc(F)cc1)(c1ccc(Cl)cc1)c1ccc(Cl)cc1` ?
a: 0.984 (inactive)

q: Would you kindly share the measured normalized growth for `Cc1c(C)c(C)c(C(=O)c2ccc(N=Cc3cc(Cl)cc(Cl)c3O)cc2)c(C)c1C` ?
a: 0.938 (inactive)

q: Please look up its normalized growth: `COc1c(Br)csc1C(=O)O/N=C(/N)c1cc(C(F)(F)F)cc(C(F)(F)F)c1`
a: 0.989 (inactive)

q: Can you look up the measured normalized growth of `Cc1cc(/C(N)=N\OC(=O)C(C)(C)C)cc(/C(N)=N\OC(=O)C(C)(C)C)c1` for me?
a: 0.969 (inactive)

q: GET /values?readout=normalized growth&item= C#CCSC1=NNC(c2ccccn2)S1 (stereo unspecified)
a: 0.821 (active)
